Entries and their log10 KM values follow.
B1: glmS ribozyme (parent)
chain: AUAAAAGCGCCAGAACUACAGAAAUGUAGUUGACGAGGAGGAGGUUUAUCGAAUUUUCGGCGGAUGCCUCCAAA

variants of: B1; assay: KM; higher = weaker cofactor use; RNA array; conditions: with glucosamine-6-phosphate
Hello, just confirming the data are log10 of KM with units of µM.

mutation_annotation	log10 KM
U45G C70U	2.75
G40U A64G	3.25
G66U C67G	3.34

Query: Could you share which log10 KM value was measured for C67G ?
Result: 3.38

Query: Reported log10 KM for U30C C68U : what is it?
Result: 3.08

Query: Given the variant A15C C58U , what is its reported log10 KM?
Result: 2.33

Query: Could you share which log10 KM value was measured for A39C U56A ?
Result: 3.60

Query: Fill in the blank: the reported log10 KM of U46C G66A is ____.
Result: 2.90

Query: Name the recorded log10 KM for U31A C67G .
Result: 3.56

Query: Requested read-out: log10 KM. Entry: G13A U56G
Result: 3.58

Query: log10 KM; subject: A33U U55A
Result: 3.44

Query: May I ask what log10 KM has been recorded for U45C C68U ?
Result: 3.70

meta.source: the supplement of paper PMC7125110
